Data credit: the supplement of paper PMC7877785

Test: self-splicing fitness, log relative to wild type (ln ratio); higher = more splicing; Tetrahymena group I intron in knt gene, E. coli kanamycin selection, DiMSum; sequences stand for … in CUCUCU…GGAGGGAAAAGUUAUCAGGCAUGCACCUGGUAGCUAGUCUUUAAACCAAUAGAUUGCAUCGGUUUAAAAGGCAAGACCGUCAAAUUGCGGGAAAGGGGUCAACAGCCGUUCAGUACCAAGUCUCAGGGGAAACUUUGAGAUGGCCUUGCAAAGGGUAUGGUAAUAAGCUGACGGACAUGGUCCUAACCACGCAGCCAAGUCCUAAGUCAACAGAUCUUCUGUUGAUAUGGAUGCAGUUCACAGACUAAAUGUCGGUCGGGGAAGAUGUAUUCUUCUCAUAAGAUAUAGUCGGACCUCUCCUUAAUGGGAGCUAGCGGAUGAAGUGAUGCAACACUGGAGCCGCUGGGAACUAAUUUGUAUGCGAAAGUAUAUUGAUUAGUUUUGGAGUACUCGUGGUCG;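 note: selection with 25 µg/mL kanamycin versus none on LB agar overnight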
Details: 30 °C
experimental_endpoint: self-splicing fitness (ln)
Returns: the value as a bare number; no unit string appended.

Check out these entries, answers already filled in.
         residue_string  result_value
0  UGAGAGCAAUAUUACGGUUG          -2.6
1  ACCCAGCAAUAUUACGUGGC         -2.83

Note down self-splicing fitness (ln) recorded for `AUGGAGCAAUAUUACGGAAA`
-3.4

Note down self-splicing fitness (ln) recorded for `AUUCAGCAAUAUUACGGGAU`
-4.6

Note down self-splicing fitness (ln) recorded for `AUUUAGCAAUAUUACGCUAG`
-0.961

Note down self-splicing fitness (ln) recorded for `AGCCAGCAAUAUUACGGGUU`
-3.25

Note down self-splicing fitness (ln) recorded for `AGUAAGCAAUAUUACGUCCA`
-0.878

Note down self-splicing fitness (ln) recorded for `UUUGAGCAAUAUUACGGAUA`
-3.12

Note down self-splicing fitness (ln) recorded for `ACAAAGCAAUAUUACGAUAC`
-2.89

###

Test: self-splicing fitness, log relative to wild type (ln ratio); higher = more splicing; Tetrahymena group I intron in knt gene, E. coli kanamycin selection, DiMSum; sequences stand for … in CUCUCU…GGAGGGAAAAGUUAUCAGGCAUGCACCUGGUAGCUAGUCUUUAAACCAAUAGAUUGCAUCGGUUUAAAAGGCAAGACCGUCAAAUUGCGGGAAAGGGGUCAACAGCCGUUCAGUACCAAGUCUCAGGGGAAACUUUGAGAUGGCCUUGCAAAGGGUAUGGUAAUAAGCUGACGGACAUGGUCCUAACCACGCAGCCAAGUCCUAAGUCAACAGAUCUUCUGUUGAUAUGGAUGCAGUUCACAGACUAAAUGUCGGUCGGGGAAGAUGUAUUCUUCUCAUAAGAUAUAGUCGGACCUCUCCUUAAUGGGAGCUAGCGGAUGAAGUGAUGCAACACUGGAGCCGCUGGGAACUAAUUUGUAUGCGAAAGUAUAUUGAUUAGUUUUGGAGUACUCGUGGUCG
Conditions: 37 °C
Measured self-splicing fitness (ln) of individual entries
Returns: the value as a bare number; no unit string appended.

Check out these entries, answers already filled in.
         residue_string  result_value
0  ACCCAGCAAUAUUACGAUGG         -1.26
1  CAGCAGCAAUAUUACGGCAU         -0.81
2  UCCGAGCAAUAUUACGGUUC         -3.02
3  CUUCAGCAAUAUUACGCGGC         -1.01
4  ACACAGCAAUAUUACGAUCG        -0.032
5  AAAGAGCAAUAUUACGAGGA          -2.6
6  GUGUAGCAAUAUUACGUUAG         -1.56
7  AUACAGCAAUAUUACGUGAA         -1.08
8  CCAUAGCAAUAUUACGUGUC         -2.45
9  GUUCAGCAAUAUUACGAAAG         0.462

Note down self-splicing fitness (ln) recorded for `GCCAAGCAAUAUUACGUAGU`
-0.395

Note down self-splicing fitness (ln) recorded for `AGACAGCAAUAUUACGGGUA`
-2.1

Note down self-splicing fitness (ln) recorded for `CUACAGCAAUAUUACGUGUG`
-0.0421
